Reference source for all entries: PubChem BioAssay AID624497

TARGET_DESC: Methionine sulfoxide reductase A (Bos taurus)
METHOD: concentration-response MsrA enzyme activation – biochemical, absorbance, bovine, late stage, dose response (AID 624497)
CONDITION_NOTES: purified MsrA enzyme activity, absorbance read-out
Activity calls are given as the source filed them. No rule for the calls is given here.
Hi there, use one of these labels in your reply, thanks! yes (1) (active), no (0) (inactive)

• O=C1C(=O)c2cccnc2-c2ncccc21 = yes (1)

Ask: Field: outcome | Entry: `O=C(COC(=O)c1ccc([N+](=O)[O-])s1)c1ccc[nH]1`
Result: no (0)

Ask: What do you have for `O=C(COC(=O)c1ccc([N+](=O)[O-])s1)Nc1cccc(S(=O)(=O)NC2=NCCCCC2)c1` ?
Result: no (0)

Ask: // query: `O=C(OCC(=O)N(c1ccccc1)c1ccccc1)c1ccc([N+](=O)[O-])s1`
Result: no (0)

Ask: Now this one: `O=C1CN(C(=O)COC(=O)c2ccc([N+](=O)[O-])s2)c2ccccc2N1`
Result: no (0)

Ask: Now the molecule `CNc1ccc2nc3ccccc3[n+](C)c2c1`
Result: yes (1)

Ask: Please do the same for `c1ccc2[nH]c3cc4ncnc4cc3nc2c1` as well.
Result: no (0)

Ask: Follow-up entry: `O=C1C(Cl)=C(Nc2ccc(O)cc2)C(=O)c2ccccc21`
Result: no (0)

Ask: Could you do the same for `O=C(c1ccccc1)c1coc2c1C(=O)c1ccccc1C2=O` , please?
Result: no (0)

Ask: Input `Nc1nc(=S)ss1`
Result: no (0)

Ask: What about this molecule? `O=C(COC(=O)c1ccc([N+](=O)[O-])s1)NCc1ccc(F)cc1`
Result: no (0)

Ask: Same read-out for `O=C(OCC(=O)N1CCN(c2ccccc2)CC1)c1ccc([N+](=O)[O-])s1` ?
Result: no (0)

Ask: What about this molecule? `Cc1ccc2[nH]c3c(c2c1)CN(C(=O)CN1CCN(c2ccccn2)CC1)CC3`
Result: no (0)

Ask: Param item: `O=C1c2ccccc2-c2nnc(-c3ccccc3)cc21`
Result: no (0)

Ask: Now the molecule `COCCCn1c(=O)c2ccccc2n2c(=S)[nH]nc12`
Result: no (0)

Ask: Then `O=C(OCc1nnc(-c2ccccc2)o1)c1ccc([N+](=O)[O-])s1` ?
Result: no (0)

Ask: Again, but for `COc1cc(NC(=O)COC(=O)c2ccc([N+](=O)[O-])s2)cc(OC)c1OC`
Result: no (0)

Ask: Request: `Cc1oc2c(c1C(=O)c1ccccc1)C(=O)C(=O)c1ccccc1-2`
Result: no (0)

Ask: Would you mind doing `O=C(COC(=O)c1ccc([N+](=O)[O-])s1)NNC(=O)c1ccccc1` as well?
Result: no (0)
